MEASUREMENT_TARGET: Calpain-2 catalytic subunit (Sus scrofa, UniProt P43367)
Sequence (P43367 whole entry): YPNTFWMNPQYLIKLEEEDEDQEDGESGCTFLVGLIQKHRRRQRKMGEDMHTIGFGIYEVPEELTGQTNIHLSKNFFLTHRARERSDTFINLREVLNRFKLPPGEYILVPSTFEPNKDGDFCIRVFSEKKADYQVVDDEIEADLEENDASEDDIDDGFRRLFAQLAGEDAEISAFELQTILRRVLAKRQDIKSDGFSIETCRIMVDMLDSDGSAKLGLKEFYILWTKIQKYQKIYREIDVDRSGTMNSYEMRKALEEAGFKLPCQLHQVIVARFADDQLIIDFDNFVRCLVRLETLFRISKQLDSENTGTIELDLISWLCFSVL
ASSAY_DETAILS: pig calpain II inhibitor potency, dose response, biochemical, fluorogenic peptide substrate (AID 1420)
Format: functional
MEASURE_NAME: IC50

The examples below pair each entry with its known result.
COMPOUND | MEASUREMENT_TARGET | IC50
Cc1ccc(NC(=O)c2noc(C(C)C)c2[N+](=O)[O-])cc1 | Calpain-2 catalytic subunit (Sus scrofa, UniProt P43367) | > 50 µM (not active)
O=C(NC1CCCC1)C(c1ccsc1)N(Cc1ccccc1)C(=O)Cc1cccs1 (centres undefined) | Calpain-2 catalytic subunit (Sus scrofa, UniProt P43367) | > 50 µM (not active)
c1ccc(-c2cn(-c3ccccc3)c3ncnc(N4CCCCC4)c23)cc1 | Calpain-2 catalytic subunit (Sus scrofa, UniProt P43367) | 5.36 µM (not active)
Cc1ccc(NC(=O)COc2cccc(/C=C3\SC(=S)N(CCC(=O)O)C3=O)c2)cc1Cl | Calpain-2 catalytic subunit (Sus scrofa, UniProt P43367) | > 50 µM (not active)
COc1ccc(NC(=O)c2noc(C(C)C)c2[N+](=O)[O-])cc1 | Calpain-2 catalytic subunit (Sus scrofa, UniProt P43367) | 9.64 µM (not active)
O=C(NCCc1csc(-c2cccnc2)n1)c1ccc(Br)o1 | Calpain-2 catalytic subunit (Sus scrofa, UniProt P43367) | < 0.4 µM (not active)

[Q] // returns reported IC50 for input CN(C)C(=O)C(=O)c1c(-c2ccccc2)cc2ccccn12
[A] > 50 µM (not active)

[Q] Further, for CCOC(=O)c1c(NC(=O)CSc2nnnn2C)sc(C)c1-c1ccc(C)cc1 ?
[A] 5.1 µM (not active)

[Q] Next up: Cn1c(NCc2ccco2)nc2c1c(=O)n(Cc1ccc(Cl)cc1)c(=O)n2C
[A] 1.88 µM (not active)
